Biological target: HCV polymerase 1A (Δ21 NS5B, H77) (Hepatitis C virus genotype 1a, UniProt P27958)
Construct: 20 to 50 nM Δ21 NS5B
Sequence (P27958 2421-2990, stated change not applied): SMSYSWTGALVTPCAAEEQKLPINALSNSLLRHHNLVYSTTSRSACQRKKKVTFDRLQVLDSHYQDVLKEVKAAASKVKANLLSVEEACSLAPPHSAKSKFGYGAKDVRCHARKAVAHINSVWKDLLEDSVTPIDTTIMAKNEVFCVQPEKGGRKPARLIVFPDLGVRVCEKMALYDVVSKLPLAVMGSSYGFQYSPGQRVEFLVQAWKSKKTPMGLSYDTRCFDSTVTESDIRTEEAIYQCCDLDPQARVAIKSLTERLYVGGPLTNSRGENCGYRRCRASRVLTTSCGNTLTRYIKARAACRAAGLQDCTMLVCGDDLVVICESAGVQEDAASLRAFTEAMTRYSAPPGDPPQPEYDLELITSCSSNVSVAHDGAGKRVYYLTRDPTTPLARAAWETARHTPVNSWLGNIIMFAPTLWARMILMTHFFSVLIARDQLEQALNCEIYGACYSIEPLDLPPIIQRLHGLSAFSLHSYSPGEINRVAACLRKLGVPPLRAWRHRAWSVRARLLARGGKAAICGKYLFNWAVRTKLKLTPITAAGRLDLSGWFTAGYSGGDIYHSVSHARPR
Experiment: biochemical
observable: IC50

Solved entries:
COc1c(/C=C/c2ccc(NS(C)(=O)=O)c(F)c2)cc(-n2ccc(=O)[nH]c2=O)cc1C(C)(C)C [IB-L1-1.5]
< 10 nM
COc1c(CCc2ccc(NS(C)(=O)=O)cc2)cc(-n2ccc(=O)[nH]c2=O)cc1C(C)(C)C [IB-L5-2-1.2]
10 to 100 nM

IC50 recorded for this compound, COc1c(CCc2ccc(NS(C)(=O)=O)cc2)cc(N2CCC(=O)NC2=O)cc1C(C)(C)C [IA-L5-2-1.1] , is 10 to 100 nM

IC50 recorded for this compound, COc1c(/C=C/c2cc(F)c(NS(C)(=O)=O)cc2C)cc(-n2ccc(=O)[nH]c2=O)cc1C(C)(C)C [IB-L1-1.15] , is < 10 nM
